Source: patent US9839701B2

# test_target: human LAT2 (Homo sapiens, UniProt Q9UHI5)
# Construct: expressed in transfected cells
# Sequence (Q9UHI5 1-535): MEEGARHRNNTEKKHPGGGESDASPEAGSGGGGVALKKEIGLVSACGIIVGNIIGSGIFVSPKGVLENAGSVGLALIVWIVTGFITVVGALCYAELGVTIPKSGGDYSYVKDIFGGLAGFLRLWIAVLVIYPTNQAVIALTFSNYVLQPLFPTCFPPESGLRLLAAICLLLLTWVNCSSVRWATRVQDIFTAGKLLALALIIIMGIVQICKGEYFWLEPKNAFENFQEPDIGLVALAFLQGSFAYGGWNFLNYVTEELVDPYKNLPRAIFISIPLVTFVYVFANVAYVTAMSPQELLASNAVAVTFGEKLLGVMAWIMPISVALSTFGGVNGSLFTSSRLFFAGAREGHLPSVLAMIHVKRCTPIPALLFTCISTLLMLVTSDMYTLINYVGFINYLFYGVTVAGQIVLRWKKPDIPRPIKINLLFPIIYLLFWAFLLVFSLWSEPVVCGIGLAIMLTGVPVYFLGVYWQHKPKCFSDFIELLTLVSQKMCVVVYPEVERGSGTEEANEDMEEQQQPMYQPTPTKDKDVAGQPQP
# Sequence (P08195 1-529 partner): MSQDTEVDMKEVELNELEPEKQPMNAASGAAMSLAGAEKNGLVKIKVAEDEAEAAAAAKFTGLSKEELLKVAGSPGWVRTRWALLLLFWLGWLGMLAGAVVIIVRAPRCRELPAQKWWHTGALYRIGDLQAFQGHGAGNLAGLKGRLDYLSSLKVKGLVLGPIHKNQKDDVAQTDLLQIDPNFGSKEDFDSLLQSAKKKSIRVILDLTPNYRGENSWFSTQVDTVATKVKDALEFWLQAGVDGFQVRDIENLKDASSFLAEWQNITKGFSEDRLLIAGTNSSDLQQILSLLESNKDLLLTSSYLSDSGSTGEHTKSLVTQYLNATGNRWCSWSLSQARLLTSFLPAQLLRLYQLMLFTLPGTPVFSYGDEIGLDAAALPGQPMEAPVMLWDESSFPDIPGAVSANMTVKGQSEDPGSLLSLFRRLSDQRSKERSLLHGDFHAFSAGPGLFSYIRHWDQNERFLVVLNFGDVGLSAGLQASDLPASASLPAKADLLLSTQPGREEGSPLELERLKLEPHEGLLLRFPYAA
# test_name: Inhibition of amino acid uptake in human LAT2 stably expressing cell line
# Format: cell-based
# measurement_setup: compound at 30 μM; human LAT2 stably expressing HEK293 cell line; 30 µM
Answer label 0 if Percentage of inhibition of LAT2-mediated amino acid uptake is under 6%, and label 1 if it is 6% or more.

Example results:
{"columns": ["molecule", "group_label"],
 "data": [
  ["NC(Cc1cc(OCCF)ccc1Br)C(=O)O (single isomer, unassigned) [compound 24a]", "label 0"],
  ["NC(Cc1cc(OCCOCCF)ccc1I)C(=O)O (single isomer, unassigned) [compound 27 (S)]", "label 1"],
  ["NC(Cc1cc(OCCF)ccc1C1CC1)C(=O)O (single isomer, unassigned) [compound 23b]", "label 1"],
  ["NC(Cc1cc(OCCF)ccc1I)C(=O)O (single isomer, unassigned) [compound 10b]", "label 1"],
  ["NC(Cc1cc(OCCCCF)ccc1I)C(=O)O (single isomer, unassigned) [compound 25b]", "label 1"]
]}

Query: Hi, just wondering whether NC(Cc1cc(OCCF)ccc1Br)C(=O)O (single isomer, unassigned) [compound 24b] shows Percentage of inhibition of LAT2-mediated amino acid uptake of 6% or higher.
Result: label 1

Query: Hi, just wondering whether NC(Cc1cc(OCCF)ccc1C1CC1)C(=O)O (single isomer, unassigned) [compound 23a] shows Percentage of inhibition of LAT2-mediated amino acid uptake of 6% or higher.
Result: label 1

Query: Hi, just wondering whether NC(Cc1cc(OCCF)ccc1I)C(=O)O (single isomer, unassigned) [compound 10a] shows Percentage of inhibition of LAT2-mediated amino acid uptake of 6% or higher.
Result: label 0
